Reference source for all entries: patent US9624216B2

- subject.of.test: HCT116 isogenic IDH1-R132H mutant cells (Homo sapiens, UniProt O75874, R132H)
- Construct: HCT116 isogenic IDH1-R132H and IDH1-R132C mutant cells; endogenous in cells; host or cells: HCT116 isogenic IDH1-R132H mutant cells (kept under G418)
- Sequence (O75874 2-414 R132H limits assumed): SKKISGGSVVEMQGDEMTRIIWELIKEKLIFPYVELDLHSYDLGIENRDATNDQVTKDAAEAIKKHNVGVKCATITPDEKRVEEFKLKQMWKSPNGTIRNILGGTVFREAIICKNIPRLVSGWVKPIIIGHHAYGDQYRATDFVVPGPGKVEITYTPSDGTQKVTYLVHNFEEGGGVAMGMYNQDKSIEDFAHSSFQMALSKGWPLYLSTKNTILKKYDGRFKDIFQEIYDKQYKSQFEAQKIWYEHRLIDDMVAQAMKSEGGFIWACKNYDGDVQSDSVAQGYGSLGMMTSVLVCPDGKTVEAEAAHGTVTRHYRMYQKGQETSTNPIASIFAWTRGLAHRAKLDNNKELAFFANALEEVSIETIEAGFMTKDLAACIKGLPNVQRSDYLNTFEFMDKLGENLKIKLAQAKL
- method.description: Cellular 2-HG assay using HCT116 mutant IDH1 cells (R132H)
- Format: cell-based
- test.context: cellular 2-HG inhibition, 24 hours, RapidFire mass spectrometry
Reported IC50 values for a set of compounds
readout.kind: IC50

[[record]]
compound = "Cc1nc(N[C@@H](C)c2cc3cc(Cl)ccc3[nH]c2=O)sc1C(N)=O"
result = "< 100 nM"

[[record]]
compound = "C[C@H](Nc1ncc(C#N)s1)c1cc2cc(Cl)ccc2[nH]c1=O"
result = "100 to 1000 nM"

[[record]]
compound = "Cc1nc(N[C@@H](C)c2cc3cc(Cl)ccc3[nH]c2=O)sc1C#N"
result = "< 100 nM"

[[record]]
compound = "CC(Nc1ncc(C#N)s1)c1cc2cc(Cl)c(OCc3ccccn3)cc2[nH]c1=O (racemic)"
result = "100 to 1000 nM"

[[record]]
compound = "C[C@H](Nc1ncc(C#N)s1)c1cc2cc(Cl)c(OCc3ccccn3)cc2[nH]c1=O"
result = "< 100 nM"

[[record]]
compound = "COc1cc2[nH]c(=O)c(C(C)Nc3ncc(C#N)s3)cc2cc1Cl (stereo not drawn)"
result = "< 100 nM"


---

Parameter: pIC50. Scope: all listed entries.
- subject.of.test: HCT116 isogenic IDH1-R132C mutant cells (Homo sapiens, UniProt O75874, R132C)
- Construct: HCT116 isogenic IDH1-R132H and IDH1-R132C mutant cells; endogenous in cells
- Sequence (O75874 2-414 R132C limits assumed): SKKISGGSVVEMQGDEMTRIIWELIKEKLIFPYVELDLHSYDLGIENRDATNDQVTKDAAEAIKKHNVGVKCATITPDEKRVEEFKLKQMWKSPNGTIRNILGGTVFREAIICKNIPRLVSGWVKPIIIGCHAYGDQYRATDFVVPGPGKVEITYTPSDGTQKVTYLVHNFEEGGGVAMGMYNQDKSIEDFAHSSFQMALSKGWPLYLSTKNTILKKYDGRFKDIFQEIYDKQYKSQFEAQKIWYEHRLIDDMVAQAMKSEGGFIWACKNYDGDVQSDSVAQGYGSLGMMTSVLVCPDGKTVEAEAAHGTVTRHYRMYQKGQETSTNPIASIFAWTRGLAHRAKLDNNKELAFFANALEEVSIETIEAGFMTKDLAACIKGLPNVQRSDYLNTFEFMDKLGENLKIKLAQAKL
- method.description: Cellular 2-HG assay using HCT116 mutant IDH1 cells (R132C)
- test.context: cellular 2-HG inhibition, 24 hours, RapidFire mass spectrometry
pIC50: −log10 of the molar value.
readout.kind: pIC50

[[record]]
compound = "C[C@H](Nc1ncc(C#N)s1)c1cc2cc(Cl)c(OCc3ccccn3)cc2[nH]c1=O"
subject_of_test = "HCT116 isogenic IDH1-R132C mutant cells (Homo sapiens, UniProt O75874, R132C)"
result = "> 7.00"

[[record]]
compound = "Cc1nc(N[C@@H](C)c2cc3cc(Cl)ccc3[nH]c2=O)sc1C(N)=O"
subject_of_test = "HCT116 isogenic IDH1-R132C mutant cells (Homo sapiens, UniProt O75874, R132C)"
result = "6.00 to 7.00"

[[record]]
compound = "C[C@H](Nc1ncc(C#N)s1)c1cc2cc(Cl)ccc2[nH]c1=O"
subject_of_test = "HCT116 isogenic IDH1-R132C mutant cells (Homo sapiens, UniProt O75874, R132C)"
result = "6.00 to 7.00"

[[record]]
compound = "CC(Nc1ncc(C#N)s1)c1cc2cc(Cl)c(OCc3ccccn3)cc2[nH]c1=O (racemic)"
subject_of_test = "HCT116 isogenic IDH1-R132C mutant cells (Homo sapiens, UniProt O75874, R132C)"
result = "> 7.00"

[[record]]
compound = "Cc1nc(N[C@@H](C)c2cc3cc(Cl)ccc3[nH]c2=O)sc1C#N"
subject_of_test = "HCT116 isogenic IDH1-R132C mutant cells (Homo sapiens, UniProt O75874, R132C)"
result = "6.00 to 7.00"

[[record]]
compound = "COc1cc2[nH]c(=O)c(C(C)Nc3ncc(C#N)s3)cc2cc1Cl (stereo not drawn)"
subject_of_test = "HCT116 isogenic IDH1-R132C mutant cells (Homo sapiens, UniProt O75874, R132C)"
result = "6.00 to 7.00"

